- ASSAY COMMENT: optical density shifts of acrAB sulA E. coli – strain DRC41, OD650, 48 h, E. coli filamentation inducer project, primary screen (AID 1152);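 also: E. coli MC1000 strain DRC41 lacking acrAB efflux pump and sulA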
- TEST SETTINGS: higher = more signal, called active from +8 up or from −8 down
MEASUREMENT NAME: z-score
Write the value as a bare number.

The recorded z-score for O=C1C2C=CC(C(O)c3cc(C(F)(F)F)cc(C(F)(F)F)c3)N(Nc3ccccc3)C2C(=O)N1c1ccccc1 (centres undefined) is -0.355

The recorded z-score for "CCCC[C@@H]1C[C@H]1[C@@H](NC(=O)c1cccnc1)c1ccc(Cl)cc1" is -3.66

The recorded z-score for "C=C(CCCC)/C(=C/C[C@H](OC(C)=O)c1ccc(OCCO)cc1)c1cnc2ccccc2c1" is 0.621

The recorded z-score for "O=C(NC1CC1)[C@@H]1c2ccccc2C(=O)N(Cc2cc(F)cc(C(F)(F)F)c2)[C@H]1c1ccc(CO)cc1" is -0.857

* * *

- ASSAY COMMENT: budding yeast growth changes without added modifier – OD600, strain BY4716, 24 h, basal condition, primary screen (AID 1173)
- TEST SETTINGS: S. cerevisiae BY4716 growth, OD600, 24 h; higher = more signal, called active from +8 up or from −8 down
Activity calls are given as the source filed them.
Provide the recorded z-score for the entries that follow.

The recorded z-score for "O[C@@H](Cc1ccccc1)[C@@H](/C=C/C1CC1)NCc1cccc(Cl)c1" is -9.37 (active)

The recorded z-score for CN1C(=O)C2C=CC(C(O)c3ccc(F)cc3)N(N(c3ccccc3)c3ccccc3)C2C1=O (stereo not given) is 0.41 (inactive)

The recorded z-score for "CC(=O)Nc1cc(Br)ccc1C(=O)NCc1ccccc1" is -8.91 (active)

The recorded z-score for "NCCCCCNC(=O)[C@H]1C[C@H]2C(=O)N3CCC[C@H]3C(=O)N2[C@H]1c1ccc(O)cc1" is -0.0403 (inactive)

The recorded z-score for OB1C=CCC(CCc2ccccc2)O1 (stereo not given) is -3.2 (inactive)

The recorded z-score for "COc1cc2c(cc1O)C=[N+](Cc1cc3c(cc1Br)OCO3)CC2" is 0.384 (inactive)

The recorded z-score for "C#CCNCc1ccccc1" is -1.11 (inactive)

The recorded z-score for "O=C(NC1CC1)[C@@H]1c2ccccc2C(=O)N(C2Cc3ccccc3C2)[C@H]1c1ccc(CO)cc1" is -0.009 (inactive)

The recorded z-score for "C=C(CCCC)C(=O)CC[C@H](OC(=O)c1cccnc1)c1ccc(OCCO)cc1" is -0.329 (inactive)

The recorded z-score for "COc1ccc(-c2cc3c(c(Cc4ccccc4)n2)[Si](C(C)C)(C(C)C)OC3)cn1" is -0.652 (inactive)

* * *

- ASSAY COMMENT: binders of probe aHhip on microarray, primary screen, stem cell growth factor project, biochemical, small-molecule microarray, fluorescence 635/667 (AID 1087);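 also: score merges spot fluorescence at 667nm with spot signal to noise ratio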
- TEST SETTINGS: higher = more signal
Values of composite z-score greater than or equal to -0.03 map to Satisfied; values below map to Not satisfied.

Does the compound "C=CCN1C(=O)[C@]2(O[C@H](CCO)[C@@H]([Si](C)(C)c3ccc(OC)cc3)[C@@H]2C)c2cc(N(C=O)c3ccccc3)ccc21" have recorded composite z-score that is -0.03 or more?
Satisfied

Does the compound "COCCCNC(=O)[C@@]1(Sc2ccc(C)cc2)CC(=O)N(Cc2ccccc2Cl)[C@@H]1c1ccc(CO)cc1" have recorded composite z-score that is -0.03 or more?
Not satisfied

Does the compound "COCCOC(=O)N1C(=O)[C@@]2(c3cc(C#CC4=CCCCC4)ccc31)[C@H](c1ccc(OCCO)cc1)N1[C@H](c3ccccc3)[C@H](c3ccccc3)OC(=O)[C@H]1[C@@H]2C(=O)N1CCc2cc(OC)c(OC)cc2C1" have recorded composite z-score that is -0.03 or more?
Not satisfied

Does the compound "COCC(=C=CC[C@H](O)c1ccccc1OCCO)CCO" have recorded composite z-score that is -0.03 or more?
Satisfied

Does the compound "COc1ccc(C(=O)Nc2ccc(CN3C(=O)[C@]4(O[C@H](CC(=O)N5CCC[C@H]5CO)[C@@H]([Si](C)(C)c5ccc(OC)cc5)[C@@H]4C)c4ccccc43)cc2)cc1" have recorded composite z-score that is -0.03 or more?
Satisfied

Does the compound "O=C(O)[C@@]1(CCS(=O)(=O)c2ccccc2)N=C(c2ccc(OCCCO)cc2)O[C@H]1c1ccccc1" have recorded composite z-score that is -0.03 or more?
Not satisfied

Does the compound "C=CCN1Cc2ccccc2[C@@H]2OC(c3ccc(OCCCO)cc3)=N[C@]2(CCS(=O)(=O)c2ccccc2)C1=O" have recorded composite z-score that is -0.03 or more?
Not satisfied

Does the compound O=C1C2C=CC(C(O)COCc3ccccc3)N(Nc3ccc([N+](=O)[O-])cc3)C2C(=O)N1c1ccccc1 (centres undefined) have recorded composite z-score that is -0.03 or more?
Not satisfied

Does the compound "CO[C@H]1O[C@H](CO)[C@@H](OC(=O)Nc2cccc(F)c2)[C@H](OC(=O)Nc2ccccc2)[C@H]1OC(=O)Nc1ccccc1" have recorded composite z-score that is -0.03 or more?
Not satisfied

Does the compound "COC(=O)C(CC#Cc1ccc2c(c1)[C@]1(C(=O)N2)[C@H](c2ccccc2OCCO)N2[C@H](c3ccccc3)[C@H](c3ccccc3)OC(=O)[C@H]2[C@@H]1C(N)=O)C(=O)OC" have recorded composite z-score that is -0.03 or more?
Satisfied

Does the compound O=C1NC(=O)C2C1C=CC(C(O)c1ccc(I)cc1)N2Nc1ccc(Cl)cc1Cl (centres undefined) have recorded composite z-score that is -0.03 or more?
Not satisfied

Does the compound "CC(C)[C@@H](C(=O)O)n1cc(C2(O)CCCCC2)nn1" have recorded composite z-score that is -0.03 or more?
Not satisfied

Does the compound "COc1ccc(C#Cc2ccc3c(c2)[C@]2(C(=O)N3)[C@H](c3ccc(O)cc3)N3[C@H](c4ccccc4)[C@H](c4ccccc4)OC(=O)[C@H]3[C@@H]2C(=O)N2CCc3cc(OC)c(OC)cc3C2)cc1" have recorded composite z-score that is -0.03 or more?
Satisfied

* * *

- ASSAY COMMENT: ATP-based viability of Huh7 replicon cells – cell-based, CellTiter-Glo luminescence, basal, 48 h, cytotoxicity control for HCV replication inhibitor project, primary screen (AID 1143);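 also: Huh7 hepatoma cells carrying a hepatitis C replication reporter with no stimulus; test concentration not given here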
- TEST SETTINGS: higher = more signal, called active from +8 up or from −8 down
Values of z-score greater than or equal to -1 map to t; values below map to f.

Does the molecule "C[N+](C)(C)CCCC[C@@H]1NC(=O)[C@@H]2C[C@H](C(=O)NCCCCCN)[C@H](c3ccc(O)cc3)N2C1=O" have recorded z-score that is -1 or more?
t

Does the molecule O=C1NC(=O)C2C1C=CC(C(O)c1ccc(I)cc1)N2Nc1ccc(Cl)cc1Cl (centres undefined) have recorded z-score that is -1 or more?
f

Does the molecule "COc1ccc(-c2cc3c(c(Cc4ccccc4)n2)[Si](C(C)C)(C(C)C)OC3)cn1" have recorded z-score that is -1 or more?
f

Does the molecule "O=C1[C@H]2C=C(Br)[C@H](C[C@@H]2OCCCCCCO)[C@@]12CO2" have recorded z-score that is -1 or more?
t

Does the molecule C=CCC(OC(C)=O)[C@@H]1[C@@H](N(Cc2ccc(-c3cccc(C(F)(F)F)c3)o2)C(=O)Cc2ccc(OC)cc2)c2cc(OCCCO)ccc2N1C(=O)c1ccc2ccccc2c1 (some centres undefined) have recorded z-score that is -1 or more?
f

Does the molecule "NC(=O)NCC#Cc1ccc2c(c1)[C@]1(C(=O)N2)[C@H](C(=O)O)[C@H]2C(=O)O[C@H](c3ccccc3)[C@H](c3ccccc3)N2[C@@H]1c1ccc(O)cc1" have recorded z-score that is -1 or more?
t

Does the molecule CS(=O)(=O)CCOC(=O)C1=CC(CCCO)=CC(c2ccc(CN3CCCC3)cc2)N(Cc2cccc(OC(F)(F)F)c2)C=C1C(=O)OCCS(C)(=O)=O (centres undefined) have recorded z-score that is -1 or more?
f

Does the molecule "CC(C)NC(=O)[C@@H]1c2ccccc2C(=O)N(C(C)C)[C@H]1c1ccc(CO)cc1" have recorded z-score that is -1 or more?
t

Does the molecule C=CCC(OC(C)=O)[C@@H]1[C@@H](N(Cc2cc3ccccc3o2)C(=O)Cc2ccc(OC)cc2)c2cc(OCCCO)ccc2N1C(=O)c1ccc2ccccc2c1 (some centres undefined) have recorded z-score that is -1 or more?
f

Does the molecule "COCCCNC(=O)[C@@]1(Cc2ccccc2)N=C(c2ccc(OCCCO)cc2)O[C@H]1c1ccccc1CN=[N+]=[N-]" have recorded z-score that is -1 or more?
f

Does the molecule "COC(=O)C(CC#Cc1ccc2c(c1)[C@]1(C(=O)N2)[C@H](c2ccccc2OCCO)N2[C@H](c3ccccc3)[C@H](c3ccccc3)OC(=O)[C@H]2[C@@H]1C(N)=O)C(=O)OC" have recorded z-score that is -1 or more?
f

Does the molecule "COCC(=C=CC[C@H](O)c1ccccc1OCCO)CCO" have recorded z-score that is -1 or more?
t

Does the molecule "COC(=O)C(CC#Cc1ccc2c(c1)[C@]1(C(=O)N2)[C@H](c2ccccc2OCCO)N2[C@H](c3ccccc3)[C@H](c3ccccc3)OC(=O)[C@H]2[C@@H]1C(=O)O)C(=O)OC" have recorded z-score that is -1 or more?
t
